The reported measurements were obtained from patent US9926264B2.

# study_system: FPR2 (Homo sapiens)
# Construct: expressed in transfected cells; host or cells: CHO-Gα16 cells
# assay_text: compound-induced calcium activity on FLIPR Tetra in CHO-Gα16 cells stably expressing FPR2
# Format: cell-based
# condition: efficacy value in brackets after EC50, read-out: FPR2 Gα16-CHO (% eff)
measurement_kind: Emax (%)

• CC(C)C[C@H](OC(=O)Nc1ccc(Br)cc1)C(=O)N(C)CC(=O)O = 106
• CCN(CC(=O)O)C(=O)[C@H](CC(C)C)OC(=O)Nc1ccc(C(F)(F)F)cc1 = 98
• CC(C)C[C@H](OC(=O)Nc1ccc(Br)cc1)C(=O)N(C)Cc1nnn[nH]1 = 98
• CC(C)C[C@H](OC(=O)Nc1ccc(C(F)(F)F)cc1)C(=O)NCc1nnn[nH]1 = 96

###

# study_system: FPR2 (Homo sapiens, UniProt P25090)
# Construct: expressed in transfected cells; host or cells: CHO-Gα16 cells
# Sequence (P25090 whole entry): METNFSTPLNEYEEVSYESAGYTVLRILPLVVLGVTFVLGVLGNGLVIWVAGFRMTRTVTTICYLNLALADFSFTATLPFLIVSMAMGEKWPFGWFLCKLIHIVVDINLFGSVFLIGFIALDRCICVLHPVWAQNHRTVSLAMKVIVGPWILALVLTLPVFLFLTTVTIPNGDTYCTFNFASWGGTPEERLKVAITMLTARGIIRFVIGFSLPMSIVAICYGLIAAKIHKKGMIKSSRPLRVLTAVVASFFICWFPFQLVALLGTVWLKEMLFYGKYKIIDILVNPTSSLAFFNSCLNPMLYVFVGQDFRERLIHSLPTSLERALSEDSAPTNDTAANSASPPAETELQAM
# assay_text: compound-induced calcium activity on FLIPR Tetra in CHO-Gα16 cells stably expressing FPR2
# Type: cell-based
# condition: tested 0.61 to 10,000 nM
pEC50: −log10 of the molar value.
measurement_kind: pEC50

For orientation, consider the following solved cases.
* CC(C)C[C@H](OC(=O)Nc1ccc(Br)cc1)C(=O)N(C)CCO | 7.23
* CC(C)C[C@H](OC(=O)Nc1ccc(Br)cc1)C(=O)NCCNC(=O)OC(C)(C)C | 6.40
* CC(C)C[C@H](OC(=O)Nc1ccc(C(F)(F)F)cc1)C(=O)N(CC(=O)OC(C)(C)C)C(C)C | 6.52

I = CC(C)C[C@H](OC(=O)Nc1ccc(C(F)(F)F)cc1)C(=O)N(CC(=O)O)C(C)C
II = CC(C)C[C@H](OC(=O)Nc1ccc(C(F)(F)F)cc1)C(=O)NCC(=O)O
III = CN(CC(=O)O)C(=O)[C@H](Cc1ccccc1)OC(=O)Nc1ccc(Br)cc1
IV = O=C(Nc1ccc(Br)cc1)O[C@@H](Cc1ccccc1)C(=O)O [Intermediate 4a]
V = CC(C)C[C@H](OC(=O)Nc1ccc(Br)cc1)C(=O)N(C)CCOS(=O)(=O)O
Descending sort on pEC50 required. To answer, arrange all of the labels according to the requested order.
III, I, IV, II, V
(III: 9.39, I: 9.18, IV: 8.84, II: 8.41, V: 8.06)

P = O=C(O)CNC(=O)[C@H](Cc1ccccc1)OC(=O)Nc1ccc(Br)cc1
Q = CC(C)C[C@H](OC(=O)Nc1ccc(C(F)(F)F)cc1)C(=O)O [Intermediate 4]
Of P versus Q , which is the one with smaller reported pEC50? Give the chosen item's label as your response.
Q
(Q: 7.61, P: 8.89)

1 = CC(C)C[C@H](OC(=O)Nc1ccc(Br)cc1)C(=O)NCC(=O)OC(C)(C)C
2 = CC(C)(C)OC(=O)[C@H](Cc1ccccc1)OC(=O)Nc1ccc(Br)cc1 [Intermediate 2a]
3 = CCN(CC(=O)OC(C)(C)C)C(=O)[C@H](CC(C)C)OC(=O)Nc1ccc(Br)cc1
4 = CC(C)C[C@H](OC(=O)Nc1ccc(Br)cc1)C(=O)NCc1nnn[nH]1
Descending sort on pEC50 required. To answer, arrange all of the labels according to the requested order.
4, 3, 1, 2
(4: 8.89, 3: 8.10, 1: 6.28, 2: 5.66)

P = CCN(CC(=O)O)C(=O)[C@H](CC(C)C)OC(=O)Nc1ccc(Br)cc1
Q = CC(C)C[C@H](OC(=O)Nc1ccc(Br)cc1)C(=O)N(C)Cc1nnn[nH]1
Which one would you say has the larger pEC50 value: P , or Q ? Give the chosen item's label as your response.
P

###

# study_system: FPR2 (Homo sapiens, UniProt P25090)
# Construct: expressed in transfected cells; host or cells: CHO-Gα16 cells
# assay_text: compound-induced calcium activity on FLIPR Tetra in CHO-Gα16 cells stably expressing FPR2
# Type: cell-based
# condition: efficacy value in brackets after EC50, read-out: FPR2 Gα16-CHO (% eff)
measurement_kind: Emax (%)

* CCN(CC(=O)OC(C)(C)C)C(=O)[C@H](CC(C)C)OC(=O)Nc1ccc(Br)cc1 | 97
* CC(C)C[C@H](OC(=O)Nc1ccc(Br)cc1)C(=O)NCCNS(=O)(=O)N(C)C | 99
* CC(C)C[C@H](OC(=O)Nc1ccc(C(F)(F)F)cc1)C(=O)N(CC(=O)OC(C)(C)C)C(C)C | 76
* O=C(Nc1ccc(Br)cc1)O[C@@H](Cc1ccccc1)C(=O)NCc1nnn[nH]1 | 103

###

# study_system: FPR2 (Homo sapiens, UniProt P25090)
# Construct: expressed in transfected cells; host or cells: CHO-Gα16 cells
# assay_text: compound-induced calcium activity on FLIPR Tetra in CHO-Gα16 cells stably expressing FPR2
# Format: cell-based
# condition: efficacy value in brackets after EC50, read-out: FPR2 Gα16-CHO (% eff)
measurement_kind: Emax (%)

* CCN(CC(=O)O)C(=O)[C@H](CC(C)C)OC(=O)Nc1ccc(Br)cc1 [Compound 24] | 95
* CCOP(=O)(CNC(=O)[C@H](CC(C)C)OC(=O)Nc1ccc(C(F)(F)F)cc1)OCC [Compound 5] | 101
* CC(C)C[C@H](OC(=O)Nc1ccc(Br)cc1)C(=O)N(C)CCO [Compound 4] | 97
* CCCN(CC(=O)OC(C)(C)C)C(=O)[C@H](CC(C)C)OC(=O)Nc1ccc(Br)cc1 [Compound 9] | 104
* CC(C)C[C@H](OC(=O)Nc1ccc(Br)cc1)C(=O)NCC(=O)O [Compound 19] | 101
* CC(=O)OCCNC(=O)[C@H](CC(C)C)OC(=O)Nc1ccc(C(F)(F)F)cc1 [Compound 18] | 89
* CC(C)C[C@H](OC(=O)Nc1ccc(Br)cc1)C(=O)N(C)CCOS(=O)(=O)O [Compound 27] | 99
* CN(CC(=O)O)C(=O)[C@H](Cc1ccccc1)OC(=O)Nc1ccc(Br)cc1 [Compound 41] | 98
* CC(C)C[C@H](OC(=O)Nc1ccc(Br)cc1)C(=O)O [Intermediate 3] | 85
* CC(C)C[C@H](OC(=O)Nc1ccc(Br)cc1)C(=O)NCCO [Compound 7] | 98
* CC(C)C[C@H](OC(=O)Nc1ccc(Br)cc1)C(=O)NCc1nnn[nH]1 [Compound 14] | 101
* CC(C)C[C@H](OC(=O)Nc1ccc(Br)cc1)C(=O)NCCN [Compound 39] | 89
* CC(C)(C)OC(=O)CNC(=O)[C@H](Cc1ccccc1)OC(=O)Nc1ccc(Br)cc1 [Compound 34] | 103
* CC(C)C[C@H](OC(=O)Nc1ccc(C(F)(F)F)cc1)C(=O)NCC(=O)OC(C)(C)C [Compound 2] | 112
* CC(C)C[C@H](OC(=O)Nc1ccc(Br)cc1)C(=O)NCCNC(=O)OC(C)(C)C [Compound 33] | 103
* CC(C)C[C@H](OC(=O)Nc1ccc(C(F)(F)F)cc1)C(=O)N(C)CC(=O)OC(C)(C)C [Compound 12] | 100
* CCN(CC(=O)OC(C)(C)C)C(=O)[C@H](CC(C)C)OC(=O)Nc1ccc(C(F)(F)F)cc1 [Compound 13] | 99
* CCN(Cc1nnn[nH]1)C(=O)[C@H](CC(C)C)OC(=O)Nc1ccc(Br)cc1 [Compound 31] | 95
* CN(CC(=O)OC(C)(C)C)C(=O)[C@H](Cc1ccccc1)OC(=O)Nc1ccc(Br)cc1 [Compound 36] | 105
* O=C(Nc1ccc(Br)cc1)O[C@@H](Cc1ccccc1)C(=O)O [Intermediate 4a] | 103
* O=C(O)CNC(=O)[C@H](Cc1ccccc1)OC(=O)Nc1ccc(Br)cc1 [Compound 40] | 95
* CC(C)C[C@H](OC(=O)Nc1ccc(Br)cc1)C(=O)N(CC(=O)O)C(C)C [Compound 23] | 105
* CCCN(CC(=O)O)C(=O)[C@H](CC(C)C)OC(=O)Nc1ccc(Br)cc1 [Compound 22] | 91

###

# study_system: FPR2 (Homo sapiens)
# assay_text: compound-induced calcium activity on FLIPR Tetra in CHO-Gα16 cells stably expressing FPR2
# condition: tested 0.61 to 10,000 nM
pEC50: −log10 of the molar value.
measurement_kind: pEC50

For orientation, consider the following solved cases.
* CC(C)C[C@H](OC(=O)Nc1ccc(Br)cc1)C(=O)N(CC(=O)OC(C)(C)C)C(C)C | 7.96
* CN(CC(=O)OC(C)(C)C)C(=O)[C@H](Cc1ccccc1)OC(=O)Nc1ccc(Br)cc1 | 7.93

P = CC(C)(C)OC(=O)CNC(=O)[C@H](Cc1ccccc1)OC(=O)Nc1ccc(Br)cc1
Q = CC(C)C[C@H](OC(=O)Nc1ccc(C(F)(F)F)cc1)C(=O)NCC(=O)OC(C)(C)C
R = CCN(Cc1nnn[nH]1)C(=O)[C@H](CC(C)C)OC(=O)Nc1ccc(Br)cc1
S = CC(=O)OCCNC(=O)[C@H](CC(C)C)OC(=O)Nc1ccc(C(F)(F)F)cc1
Ordering: ascending pEC50. To answer, arrange all of the labels according to the requested order.
Q, S, P, R

P = CC(C)C[C@H](OC(=O)Nc1ccc(Br)cc1)C(=O)N(CC(=O)O)C(C)C
Q = CCN(CC(=O)OC(C)(C)C)C(=O)[C@H](CC(C)C)OC(=O)Nc1ccc(C(F)(F)F)cc1
Which one would you say has the larger pEC50 value: P , or Q ? Give the chosen item's label as your response.
P
(P: 9.49, Q: 7.78)

I = CCCN(CC(=O)O)C(=O)[C@H](CC(C)C)OC(=O)Nc1ccc(Br)cc1
II = CC(C)C[C@H](OC(=O)Nc1ccc(Br)cc1)C(=O)N(C)CC(=O)OC(C)(C)C
III = CCCN(CC(=O)O)C(=O)[C@H](CC(C)C)OC(=O)Nc1ccc(C(F)(F)F)cc1
Ordering: ascending pEC50. To answer, arrange all of the labels according to the requested order.
II, III, I
